Data provenance: PubChem BioAssay

Assay: CRL1545 cell growth, single agent and combined, cisplatin and BGB IC20 combos (AID 1671464);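 also: cells exposed to compound for 96 hours before readout; 0% = vehicle DMSO and 100% = high DMSO killing control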
Conditions: CRL1545 osteosarcoma cells, measured here: with cisplatin IC20 combination, at 0.5 µM, stronger effect = higher value
Overview of recorded inhibition for various molecules
Express the result in % but write the number alone.

Previously resolved entries follow.
Check the records and state inhibition for C=C(NC(=O)C(=C)NC(=O)c1csc(C2=NC3c4csc(n4)C4NC(=O)c5csc(n5)C(C(C)(O)C(C)O)NC(=O)C5CSC(=N5)/C(=C/C)NC(=O)C(C(C)O)NC(=O)c5csc(n5)C3(CC2)NC(=O)C(C)NC(=O)C(=C)NC(=O)C(C)NC(=O)C(C(C)CC)NC2C=Cc3c(C(C)O)cc(nc3C2O)C(=O)OC4C)n1)C(N)=O (centres undefined)
53.1

Check the records and state inhibition for NC(=O)c1cccc2cn(-c3ccc(C4CCCNC4)cc3)nc12 (centres undefined)
-17

Check the records and state inhibition for CC(C)OC(=O)[C@H](C)NP(=O)(OC[C@H]1O[C@@H](n2ccc(=O)[nH]c2=O)C(C)(F)[C@@H]1O)Oc1ccccc1 (some centres undefined)
-19.9

Check the records and state inhibition for CC(C)C(=O)SCCCCCCC(=O)Nc1nc(-c2ccccc2)cs1
36.2

Check the records and state inhibition for NC(=O)c1ncn(C2OC(CO)C(O)C2O)c1O (centres undefined)
-21

Check the records and state inhibition for CO[C@H]1/C=C/O[C@@]2(C)Oc3c(C)c(O)c4c(O)c(c5c(c4c3C2=O)=NC2(CCN(CC(C)C)CC2)N=5)NC(=O)/C(C)=C\C=C\[C@H](C)[C@H](O)[C@@H](C)[C@@H](O)[C@@H](C)[C@H](OC(C)=O)[C@@H]1C
11.6

Check the records and state inhibition for Cc1ccc([N+](=O)[O-])cc1S(=O)(=O)N(C)/N=C\c1cnc2ccc(Br)cn12
97.9

Check the records and state inhibition for CC1OC(n2cc(F)c(=O)[nH]c2=O)C(O)C1O (centres undefined)
-60.2

New cases:
Check the records and state inhibition for C=C1CCC(O)CC1=CC=C1CCCC2(C)C1CCC2C(C)C=CC(C)C(C)C (centres undefined)
-40.8

Check the records and state inhibition for COc1cccc2c1C(=O)c1c(O)c3c(c(O)c1C2=O)CC(O)(C(C)=O)CC3OC1CC(N)C(O)C(C)O1 (centres undefined)
99.7

Check the records and state inhibition for NC(=S)NN=Cc1ncccc1N
19.9

Check the records and state inhibition for CC(C)(O)[C@H]1CC[C@@](C)(C2[C@@H](O)C[C@@]3(C)[C@@H]4C[C@H](O)C5C(C)(C)[C@@H](O)CCC56CC46CC[C@]23C)O1 (some centres undefined)
14.8

Check the records and state inhibition for CC(=O)C1(O)Cc2c(O)c3c(c(O)c2C(OC2CC(N)C(O)C(C)O2)C1)C(=O)c1ccccc1C3=O (centres undefined)
99.3

Check the records and state inhibition for COc1ccc(-c2nc(-c3cc(C(F)(F)F)cc(C(F)(F)F)c3)n(Cc3ccc(C(N)=O)cc3)c2-c2ccc(OC)cc2)cc1
42.1

###

Test: viability loss with induced miR-34 in A549 – imaging, A549 dox-inducible miR-34, nuclei and caspase counts, primary screen (AID 1347080)
Settings: A549 miR-34 inducible, Hoechst nuclei count, 48 h; measured here: relative caspase fold change +Dox/-Dox
OBSERVED_PROPERTY: fold change
Please give the numeric answer without any surrounding text.

Previously resolved entries follow.
Check the records and state fold change for Cn1nc(-c2cccnc2)c2[nH]c(-c3ccccc3OC(F)F)nc21
0.925

Check the records and state fold change for C#C[C@]1(O)CCC2C3CCC4=CC(=O)CCC4C3CC[C@@]21CC (some centres undefined)
1.25

Check the records and state fold change for COc1cc2c(cc1OC)-c1[nH]nc(Nc3cccc(F)c3)c1C2
1.72

Check the records and state fold change for COc1ccc2c(OC)c3ccoc3nc2c1OC
1.16

Check the records and state fold change for CC1OC(OC2C(Oc3cc(O)c4c(c3)OC(c3ccc(O)cc3)CC4=O)OC(CO)C(O)C2O)C(O)C(O)C1O (centres undefined)
0.741

New cases:
Check the records and state fold change for CCC(=O)[C@@]1(C)[C@H](C)C[C@H]2[C@@H]3CCC4=CC(=O)C=C[C@]4(C)[C@H]3[C@@H](O)C[C@@]21C
0.845

Check the records and state fold change for CCn1c2ccccc2c2cc(CNC)ccc21
0.773

Check the records and state fold change for CCOCCOCCOCCOCCOCCOCCOCCOCCOCCO (tested in a mixture with another compound)
1.63

###

Test: inhibition of 3D7 malaria parasite growth – strain 3D7 (AID 2306);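 also: 0% = DMSO wells and 100% = chloroquine plus artemisinin control wells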
Conditions: P. falciparum 3D7 erythrocytic growth, LDH absorbance, 72 h; at 2 µM; stronger effect = higher value
OBSERVED_PROPERTY: growth inhibition (%)
Express the result in % but write the number alone.

Previously resolved entries follow.
Check the records and state growth inhibition for COc1cc(-c2nc(-c3ccc4c(c3)CCC4=NO)c(-c3ccncc3)[nH]2)ccc1OCCN1CCN(C)CC1
99

Check the records and state growth inhibition for CCn1c(C=Cc2cc(Br)ccc2O)nc2ccccc2c1=O
95

Check the records and state growth inhibition for C=CC[C@H](C[C@H](O)[C@H](Cc1ccccc1)NC(=O)c1ccc(-n2cccn2)cc1)C(=O)NC1CCCCC1
96

Check the records and state growth inhibition for CCCO[C@H](C(=O)OC)[C@@H](CC1Cc2ccccc2C1)C(=O)NCCC1=CCCCC1
93

Check the records and state growth inhibition for CCCCCC(C)C(C)c1cc(O)c2c(c1)OC(C)(C)CC2=Cc1ccncc1 (centres undefined)
100

Check the records and state growth inhibition for c1cc2nc(CCCCc3nc4ccc(C5=N[C@H]6CCCC[C@H]6N5)cc4[nH]3)[nH]c2cc1C1=N[C@H]2CCCC[C@H]2N1
90

Check the records and state growth inhibition for CN(C)c1nc(NN=Cc2cc(Cl)ccc2O)nc(Nc2ccc(F)cc2)n1
94

Check the records and state growth inhibition for N=C(N)c1ccc(C=Cc2ccc(C(=N)N)cc2O)cc1
92

New cases:
Check the records and state growth inhibition for O=C(NC=Nc1cc([N+](=O)[O-])c(-c2ccncc2)n1-c1ccccc1)c1cccc(O)c1
100

###

Assay: drug combination growth inhibition, ovarian cancer – cell-based, oncology-focused library, rucaparib conditional, profiling panel (AID 1508598)
Details: patient-derived ovarian cancer cells, CellTiter-Glo viability, 144 h; at 0.0781 µM; OCI-C5x cells; with rucaparib 10 µM; stronger effect = lower value; 100% = cells with rucaparib alone
Where a SMILES comes first, the peptide text is derived from it. The star is where a group is joined. Cbz = O=C(OCc1ccccc1)*; CH2F = FC*
OBSERVED_PROPERTY: viability (%)
Express the result in % but write the number alone.

Check the records and state viability for CCNC(=O)c1noc(-c2cc(Cl)c(O)cc2O)c1-c1ccc(OC)cc1
73.6

Check the records and state viability for CCc1c2c(nc3ccc(OC(=O)N4CCC(N5CCCCC5)CC4)cc13)-c1cc3c(c(=O)n1C2)COC(=O)[C@@]3(O)CC
112

Check the records and state viability for CCOC(=O)NCCCC(=O)NCCc1ccccc1
110

Check the records and state viability for COc1cccc(-c2cc(F)ccc2[C@H]2Cc3nc(N)nc(C)c3C(=O)N2)n1
23.6

Check the records and state viability for Nc1ncn([C@@H]2O[C@H](CO)[C@@H](O)[C@@H]2O)c(=O)n1
117

New cases:
Check the records and state viability for CO[C@H]1C[C@@H]2CC[C@@H](C)[C@@](O)(O2)C(=O)C(=O)N2CCCC[C@H]2C(=O)O[C@H]([C@@H](C)C[C@@H]2CC[C@@H](OCCO)[C@H](OC)C2)CC(=O)[C@H](C)/C=C(\C)[C@H](O)[C@@H](OC)C(=O)[C@H](C)C[C@H](C)/C=C/C=C/C=C/1C
111

Check the records and state viability for c1ccc(Cn2c(-c3ccc(OC[C@H](C4CCNCC4)n4c(-c5ccccc5)nc5ccccc54)cc3)nc3ccccc32)cc1
110

Check the records and state viability for CCCCCOC(=O)Nc1nc(=O)n([C@@H]2O[C@H](C)[C@@H](O)C2O)cc1F (stereo partly specified)
101

Check the records and state viability for Cc1cc(C)c(-c2csc(NC(=O)c3ccccc3)n2)c(C)c1
111

Check the records and state viability for CC(C)(C(=O)NCC(F)(F)C(F)(F)F)C(=O)N[C@H]1C(=O)Nc2ccccc2-c2ccccc21
119

Check the records and state viability for COC(=O)C[C@H](NC(=O)[C@H](C)NC(=O)[C@@H](NC(=O)OCc1ccccc1)C(C)C)C(=O)CF (Cbz-Val-Ala-Asp(OMe)-CH2F)
110

###

Assay: viability loss with induced miR-34 in A549 – imaging, A549 dox-inducible miR-34, nuclei and caspase counts, primary screen (AID 1347080)
Conditions: A549 miR-34 inducible, Hoechst nuclei count, 48 h; measured here: total cells without miR-34 induction
Overview of recorded cell count for various compounds
Please give the numeric answer without any surrounding text.

Previously resolved entries follow.
Check the records and state cell count for CCOc1nc2cccc(C(=O)OCc3oc(=O)oc3C)c2n1Cc1ccc(-c2ccccc2-c2noc(=O)[nH]2)cc1
8630

Check the records and state cell count for CC1C[C@@H]2[C@@H](C(O)C[C@@]3(C)[C@H]2CC[C@@]3(O)C(=O)CO)[C@@]2(C)C=CC(=O)C=C12 (some centres undefined)
6980

Check the records and state cell count for CC1CNc2c(cccc2S(=O)(=O)N[C@@H](CCCN=C(N)N)C(=O)N2CCC(C)CC2C(=O)O)C1 (some centres undefined)
7990

Check the records and state cell count for OC[C@H]1O[C@@H](n2cnc3c(NC4CCCCC4)ncnc32)[C@H](O)[C@@H]1O
10100

Check the records and state cell count for CCC(C)Nc1cc(C(=O)NC2CC3CCC(C2)N3c2ccc(C(=O)C3CC3)cn2)c(C)cc1C(N)=O (centres undefined)
2490

New cases:
Check the records and state cell count for O=C1CN(c2ncnc3nc[nH]c23)CCN1Cc1cccc(F)c1
9720

Check the records and state cell count for CCC(=O)[C@@]1(C)[C@H](C)C[C@H]2[C@@H]3CCC4=CC(=O)C=C[C@]4(C)[C@H]3[C@@H](O)C[C@@]21C
7980

Check the records and state cell count for CC(C)N(CCCNC(=O)Nc1ccc(C(C)(C)C)cc1)CC1OC(n2ccc3c(N)ncnc32)C(O)C1O (centres undefined)
9540

Check the records and state cell count for Oc1ccccc1O
7580
